# target.or.system: T1, TNFR1 (Homo sapiens, UniProt P19438)
# T1 chain: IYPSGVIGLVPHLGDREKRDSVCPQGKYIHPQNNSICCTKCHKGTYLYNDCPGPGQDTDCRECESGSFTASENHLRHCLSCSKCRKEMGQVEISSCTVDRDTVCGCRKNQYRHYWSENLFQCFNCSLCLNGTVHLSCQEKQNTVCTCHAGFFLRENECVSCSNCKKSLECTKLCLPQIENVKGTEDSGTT
# method: yeast display SC50
attribute.measured: apparent Kd (screen) (nM)

- E60M (designed binder) SMEEEVEKAAKEYEKKKKEAIEKHLEKLKAKDKEAAERFLKELEEAAKEYAKDEAKTMSMEEAKRRAKKYKEKVLLSELSEEEQKEIKEAEEKLVRTILKYVEEAAK: 0.49

1. E61I (designed binder) SMEEEVEKAAKEYEKKKKEAIEKHLEKLKAKDKEAAERFLKELEEAAKEYAKDEAKTMSEIEAKRRAKKYKEKVLLSELSEEEQKEIKEAEEKLVRTILKYVEEAAK
2. K56W (designed binder) SMEEEVEKAAKEYEKKKKEAIEKHLEKLKAKDKEAAERFLKELEEAAKEYAKDEAWTMSEEEAKRRAKKYKEKVLLSELSEEEQKEIKEAEEKLVRTILKYVEEAAK
3. K69P (designed binder) SMEEEVEKAAKEYEKKKKEAIEKHLEKLKAKDKEAAERFLKELEEAAKEYAKDEAKTMSEEEAKRRAKPYKEKVLLSELSEEEQKEIKEAEEKLVRTILKYVEEAAK
query: Form: Sort by [apparent Kd (screen)] Order [ ascending ] Please list the labels in the order you were asked to rank them.
result: 1, 2, 3

FYI, the data here is from paper PMC12416549.
